- assay_info: tissue distribution studies in mice
- Assay type: in vivo
- experimental_parameters: mouse, liver, po, 10 mg/kg, Table 6, 24.0 h, mean, read-out: Liver Mean
endpoint_label: concentration at 24 h (ng/g)
The answer is to be given in ng/g; state only the numeric part.

Query: Param item = "Cc1cc(C(F)(F)F)nc2ccc(Oc3c(Cl)cc(-n4nc(C#N)c(=O)[nH]c4=O)cc3Cl)cc12" ; retrieve measured concentration at 24 h.
Result: 39.8

* * *

- assay_info: tissue distribution studies in mice
- Type: in vivo
- experimental_parameters: mouse, po, 10 mg/kg, Table 6, 3.00 h, individual animal, read-out: plasma
endpoint_label: concentration at 3 h (µg/mL)
Dear colleague, please return just the value in µg/mL, with no unit written.

Query: Value lookup for concentration at 3 h; key = Cc1cc(C(F)(F)F)nc2ccc(Oc3c(Cl)cc(-n4nc(C#N)c(=O)[nH]c4=O)cc3Cl)cc12 [Compound 38]
Result: 5.45
